experiment: physchem; conditions: water
measurementName: half-life

So, "COC(=O)COC(=O)CON=C(C)C" ? Its half-life was 12 to 21 days
